Cited source for all entries: patent US6541486B1

# Tested on: OGD cells (retinal ganglion cells)
# method-notes: Increase in survival of OGD cells at fixed concentrations (similar assay)
# Format: cell-based, rat
# assay-context: Concn 0.01 μM
test-readout: Percent Increase in Survival over OGD Control Cells

Recorded Percent Increase in Survival over OGD Control Cells, per entry:
{"molecule": "O=[N+]([O-])c1cccc2[nH]c(Cc3nc4c([N+](=O)[O-])cccc4[nH]3)nc12", "result": "++ (50%-100% increase)"}
{"molecule": "Nc1cccc2[nH]c(Cc3nc4cc(Cl)ccc4[nH]3)nc12", "result": "+++ (>100% increase)"}
{"molecule": "O=[N+]([O-])c1ccc2[nH]c(Cc3nc4ccc([N+](=O)[O-])cc4[nH]3)nc2c1", "result": "++ (50%-100% increase)"}
{"molecule": "Oc1cccc2[nH]c(Cc3nc4c(O)cccc4[nH]3)nc12 [SNX 909, 4,4′-dihydroxyl*]", "result": "+ (up to 50% increase)"}

QUERY: Form: Entry = `Fc1cccc2[nH]c(Cc3nc4c(F)cccc4[nH]3)nc12` | System = OGD cells (retinal ganglion cells) | Percent Increase in Survival over OGD Control Cells = ____
RESULT: +++ (>100% increase)

QUERY: Form: Entry = `c1ccc2[nH]c(Cc3nc4ccccc4[nH]3)nc2c1` | System = OGD cells (retinal ganglion cells) | Percent Increase in Survival over OGD Control Cells = ____
RESULT: + (up to 50% increase)

QUERY: Form: Entry = `Nc1cccc2[nH]c(Cc3nc4ccccc4[nH]3)nc12` | System = OGD cells (retinal ganglion cells) | Percent Increase in Survival over OGD Control Cells = ____
RESULT: ++ (50%-100% increase)

QUERY: Form: Entry = `CC(c1nc2ccccc2[nH]1)c1nc2ccccc2[nH]1` | System = OGD cells (retinal ganglion cells) | Percent Increase in Survival over OGD Control Cells = ____
RESULT: +++ (>100% increase)

====

# Test system: OGD cells (retinal ganglion cells)
# method-notes: Increase in survival of OGD cells at fixed concentrations (similar assay)
# Assay type: cell-based, rat
# assay-context: Concn 0.01 μM
test-readout: Percent Increase in Survival over OGD Control Cells

Recorded Percent Increase in Survival over OGD Control Cells, per entry:
{"structure-as-smiles": "N#Cc1ccc2[nH]c(Cc3nc4ccc(C#N)cc4[nH]3)nc2c1", "result": "+ (up to 50% increase)"}
{"structure-as-smiles": "Nc1ccc2[nH]c(Cc3nc4ccc(N)cc4[nH]3)nc2c1", "result": "+ (up to 50% increase)"}
{"structure-as-smiles": "Cn1c(Cc2nc3ccccc3n2C)nc2ccccc21", "result": "++ (50%-100% increase)"}
{"structure-as-smiles": "O=[N+]([O-])c1cccc2[nH]c(Cc3nc4ccccc4[nH]3)nc12", "result": "++ (50%-100% increase)"}

API: the following record is the query input.
QUERY: Which measured Percent Increase in Survival over OGD Control Cells value corresponds to `Clc1ccc2[nH]c(Cc3nc4ccccc4[nH]3)nc2c1` ?
RESULT: + (up to 50% increase)

====

# System: OGD cells (retinal ganglion cells)
# method-notes: Increase in survival of OGD cells at fixed concentrations (similar assay)
# Assay type: cell-based, rat
# assay-context: Concn 1 μM
test-readout: Percent Increase in Survival over OGD Control Cells

{"structure-as-smiles": "O=[N+]([O-])c1ccc2[nH]c(Cc3nc4ccc([N+](=O)[O-])cc4[nH]3)nc2c1", "result": "++ (50%-100% increase)"}
{"structure-as-smiles": "Clc1ccc2[nH]c(Cc3nc4ccccc4[nH]3)nc2c1", "result": "++ (50%-100% increase)"}
{"structure-as-smiles": "Nc1cccc2[nH]c(Cc3nc4ccccc4[nH]3)nc12", "result": "+++ (>100% increase)"}
{"structure-as-smiles": "Fc1cccc2[nH]c(Cc3nc4c(F)cccc4[nH]3)nc12", "result": "++ (50%-100% increase)"}
{"structure-as-smiles": "Nc1cccc2[nH]c(Cc3nc4cc(Cl)ccc4[nH]3)nc12", "result": "+++ (>100% increase)"}
{"structure-as-smiles": "CC(c1nc2ccccc2[nH]1)c1nc2ccccc2[nH]1", "result": "+++ (>100% increase)"}

API: the following record is the query input.
QUERY: Which measured Percent Increase in Survival over OGD Control Cells value corresponds to `N#Cc1ccc2[nH]c(Cc3nc4ccc(C#N)cc4[nH]3)nc2c1` ?
RESULT: —
